Listed below: RP-LC retention time values for each entry.
assay: gradient 5% acetonitrile 3 min, to 50% in 2 min, to 85% in 15 min, held 3 min, 100 µL/min; conditions: column: Zorbax Extend-C18 2.1 x 50 mm; eluents: water / acetonitrile, 0.1% formic acid
PARAMETER MEASURED: RP-LC retention time (s)

>>> value_observed("Cc1ccsc1CN1CCc2nc(N3CCN(c4ccccc4F)CC3)ncc2C1")
780
>>> value_observed("CC(=O)c1ccc(NC(=O)c2nc(N3CCCC3)c3c(C)cc(C)nc3n2)cc1")
646
>>> value_observed("O=C(CSc1ccc(N2CCCC(C(=O)NC3CC3)C2)nn1)Nc1ccc2c(c1)OCO2 (stereo not given)")
612
>>> value_observed("Cc1cccc(-c2noc(-c3nn(-c4ccccc4)ccc3=O)n2)c1")
898
>>> value_observed("CC(C)NCC(O)c1ccc(N)c(C#N)c1 (stereo not given)")
563

###

Listed below: RP-LC retention time values for each entry.
test: gradient 5% acetonitrile 3 min, to 50% in 2 min, to 85% in 15 min, held 3 min, 100 µL/min; settings: column: Zorbax Extend-C18 2.1 x 50 mm; eluents: water / acetonitrile, 0.1% formic acid
PARAMETER MEASURED: RP-LC retention time

>>> value_observed("COc1ccc(CNC(=O)C2(C)CCN(S(=O)(=O)c3c(C)cc(C)cc3C)CC2)cc1")
"912 s"
>>> value_observed("CC(C)N1CCN(C(=O)c2cc(-c3ccccc3)n[nH]2)CC1")
"589 s"
>>> value_observed("CCOC(=O)Cc1c(C)nc2cc(-c3ccccc3)nn2c1C")
"1020 s"
>>> value_observed("CCc1ccc(Nc2nc(C(=O)NCCC(C)C)nc3ccccc23)cc1")
"964 s"
>>> value_observed("CN(C)C(CNS(=O)(=O)c1ccc(Br)s1)c1cn(C)c2ccccc12 (stereo not drawn)")
"595 s"
>>> value_observed("COc1ccc(Cl)cc1C(=O)Nc1cnc(N2CCCCC2)nc1")
"1070 s"
>>> value_observed("O=C(NCC1CN(c2ccccc2)C(=O)O1)Nc1ccccc1Cl (stereo not drawn)")
"776 s"
>>> value_observed("O=C(c1ccc(-c2ccc3c(c2)CCN3S(=O)(=O)c2ccccc2)cc1)N1CCOCC1")
"885 s"
>>> value_observed("CC(=O)c1cccc(NC(=O)CN2C(=O)C3CCCCN3c3ccc(C(=O)N4CCCC4)cc32)c1 (stereo not drawn)")
"780 s"
>>> value_observed("COc1cccc(N2CCN(C(=O)C3CCN(S(=O)(=O)c4cn(C)c(C)n4)CC3)CC2)c1")
"702 s"
>>> value_observed("CCN1CCN(c2nc3cc(C(=O)OC)ccc3c(=O)n2-c2ccc(F)c(Cl)c2)CC1")
"655 s"
>>> value_observed("Cc1cc2nc(C(F)(F)F)c(=O)n(C(C)C(=O)N3CCN(C(=O)c4ccco4)CC3)c2cc1C (stereo not drawn)")
"957 s"
>>> value_observed("CCCn1c(=O)c(C)nc2cc(-c3noc(C4CC(=O)N(c5ccccc5)C4)n3)ccc21 (stereo not drawn)")
"895 s"
>>> value_observed("O=C(Nc1cccc(F)c1)C1CC(=O)N(CCc2c[nH]c3ccc(F)cc23)C1 (stereo not drawn)")
"799 s"
>>> value_observed("CC1(C)CC(=O)C2=C(C1)N=C1SCCC(=O)N1C2c1ccc(Cl)cc1 (stereo not drawn)")
"877 s"
>>> value_observed("CCOc1ccc(-c2nc(-c3cccc(-c4ccnn4C)c3)no2)cc1")
"1230 s"
>>> value_observed("CC(=O)Nc1ccc(NC(=O)COc2cc(C)nc(-c3ccc(C(F)(F)F)cc3)n2)cc1")
"887 s"
>>> value_observed("O=C(Cc1ccc(Br)cc1)N1CCCN(c2cc(-c3ccc(F)cc3)[nH]n2)CC1")
"773 s"
>>> value_observed("CCCCNc1c(C(=O)OC)c(=O)[nH]c2c(Cl)cccc12")
"783 s"
>>> value_observed("CCOc1ccc(-c2noc(Cn3cnc4c(cnn4-c4ccc(CC)cc4)c3=O)n2)cc1OC")
"1070 s"
>>> value_observed("Cc1ccc(-c2csc(-n3nc(C)c(CC(=O)Nc4c(C)cccc4C)c3C)n2)cc1")
"1190 s"
>>> value_observed("CCCn1cnc2cc(-c3noc(CNC(=O)c4ccccc4)n3)ccc21")
"667 s"
>>> value_observed("CC(C)n1c(N2CCN(C(=O)c3c(F)cccc3F)CC2)cc(=O)n(C(C)C)c1=O")
"814 s"
>>> value_observed("Cc1ccc(Cl)cc1N1CCN(C(=O)c2c(C)oc3c2C2=NCCN2C=N3)CC1")
"705 s"
>>> value_observed("CCCC(NC(=O)c1cc(OC)c(OC)c(OC)c1)C(=O)Nc1nc2ccccc2[nH]1 (stereo not drawn)")
"688 s"
>>> value_observed("O=C(NCc1nc(-c2cccc(-c3ccn[nH]3)c2)no1)c1ccccc1")
"741 s"
>>> value_observed("CC1(C(=O)Nc2ccc(F)c(Cl)c2)Oc2cccnc2NC1=O (stereo not drawn)")
"730 s"
>>> value_observed("Nc1cc(C2CCN(C(=O)Cc3ccc(F)cc3)CC2)no1")
"684 s"
>>> value_observed("Cc1sc2cc(C(=O)NC(C)C)[nH]c2c1CN1CCCCC1")
"643 s"
>>> value_observed("O=C(NCc1nnnn1C1CCCCC1)OCc1ccccc1")
"757 s"
>>> value_observed("CCC(C)NC(=O)C1CCN(S(=O)(=O)c2cc(C(=O)N3CCCC3)n(C)c2)CC1 (stereo not drawn)")
"660 s"
>>> value_observed("CCOc1ccc(CNS(=O)(=O)c2cc(-c3c(C)noc3NC(C)=O)ccc2OC)cc1")
"785 s"
>>> value_observed("O=C(NC1CC1)C1CCc2sc(C(=O)N3CCCCC3)cc2C1 (stereo not drawn)")
"711 s"
>>> value_observed("O=C(Cn1ccc2c(SCc3ccccc3)nccc21)N1CCN(c2ccccn2)CC1")
"577 s"
>>> value_observed("O=C(NCCCc1ccccc1)C1CCN(c2cnn(Cc3ccccc3)c(=O)c2)CC1")
"818 s"
>>> value_observed("O=C(CCn1cnc2cc(-c3noc(COc4ccccc4)n3)ccc21)N1CCCC1")
"730 s"
>>> value_observed("Cc1cc(-c2cc(S(=O)(=O)NC3CCCCCC3)c(C)s2)n[nH]1")
"917 s"
>>> value_observed("CCCn1ccc2sc(C)c(C(=O)NCc3ccc(C)cc3)c2c1=O")
"948 s"

###

assay: gradient 5% acetonitrile 3 min, to 50% in 2 min, to 85% in 15 min, held 3 min, 100 µL/min; settings: column: Zorbax Extend-C18 2.1 x 50 mm; eluents: water / acetonitrile, 0.1% formic acid
PARAMETER MEASURED: RP-LC retention time

>>> value_observed("CCn1c(=O)oc2cc(-c3noc(-c4cc(F)ccc4F)n3)ccc21")
"1100 s"
>>> value_observed("CCOC(=O)CC1(NC(=O)N2CCN(c3nc4ccccc4n3C)CC2)CCCCC1")
"593 s"
>>> value_observed("CCn1nccc1C(=O)NCCn1c(=O)n(Cc2cccc(C)c2)c2cccnc21")
"784 s"
>>> value_observed("Cc1cccc(CNC(=O)C2(C)Cn3cnc(C(=O)NCc4ccccc4F)c3C(=O)N2C2CC2)c1 (centres undefined)")
"772 s"
>>> value_observed("CCC(C)C(NC(=O)c1cccc(OC)c1)C(=O)Nc1nc2ccccc2[nH]1 (centres undefined)")
"726 s"
>>> value_observed("CCN1c2ccccc2C(=O)NC12CCN(C(=O)Nc1ccc(OC)cc1)CC2")
"735 s"
>>> value_observed("Cn1c(=O)oc2cc(-c3noc(-c4ccc(F)cc4)n3)ccc21")
"831 s"
>>> value_observed("Cc1ccc(CNC(=O)N2CCC[C@@H]2C(=O)NCc2csc(-c3ccccc3)n2)cc1")
"824 s"
>>> value_observed("CCOC(=O)c1ccccc1NC(=O)CN1CCC(Cn2cnc3ccccc32)CC1")
"556 s"

###

assay: gradient 5% acetonitrile 3 min, to 50% in 2 min, to 85% in 15 min, held 3 min, 100 µL/min; conditions: column: Zorbax Extend-C18 2.1 x 50 mm; eluents: water / acetonitrile, 0.1% formic acid
Heads up, the class ranges for RP-LC retention time are band 1 (below 700 s), band 2 (700 s to below 800 s), band 3 (800 s or more)

>>> label("Cc1noc(-c2cc(=O)n(CC(=O)NCc3ccccc3F)c3ccccc23)n1")
"band 3"
>>> label("COc1ccc(C(O)CN2CCN(c3ccccc3F)CC2)cc1OC (stereo not drawn)")
"band 1"
>>> label("Cc1nn(-c2ccc(N3CCCC3)nn2)c(C)c1CCC(=O)N1CCN(c2ncccn2)CC1")
"band 1"
>>> label("COC(=O)c1ccc(Cl)cc1NC(=O)N1CCN(CCn2cnc3cccnc32)CC1")
"band 1"
>>> label("COc1ccccc1CNC(=O)C1CCCN(c2nn3c(=O)c4c(nc3s2)CCCC4)C1 (stereo not drawn)")
"band 2"
>>> label("COc1nn(C)cc1C(=O)NCC(O)c1ccc(C(F)(F)F)cc1 (stereo not drawn)")
"band 1"
>>> label("O=C(Cn1c(-c2cccnc2)nc2ccccc21)Nc1nccs1")
"band 1"
>>> label("Cc1ccc(Nc2c(-c3ccccc3)nc3cccc(C)n23)cc1")
"band 2"
>>> label("COCCN1CC(CO)C2(CCN(Cc3ccc(Cl)cc3F)CC2)C1 (stereo not drawn)")
"band 1"
>>> label("O=S(=O)(c1cccnc1)N1CCC2(CC1)NCCc1c2[nH]c2ccccc12")
"band 1"
>>> label("COc1cccc(Cn2c(=O)c3sccc3n(Cc3nc(-c4ccccc4C)no3)c2=O)c1")
"band 3"
>>> label("O=c1ccc(-c2ccc3c(c2)OCO3)nn1CCc1nc(-c2ccccc2)no1")
"band 3"
>>> label("Cc1ccc(NC(=O)N2CCc3nc(-c4ccc(F)cc4)ncc3C2)c(Cl)c1")
"band 3"
>>> label("CCCN1CCN(C(=O)C(C)C2CCN(S(=O)(=O)c3ccc(Cl)s3)CC2)CC1 (stereo not drawn)")
"band 1"
>>> label("Cc1ccc(-c2[nH]ncc2CN)cc1")
"band 1"
>>> label("O=C(Cn1nc(C(=O)N2CCCC2)c2ccccc21)N1CCN(Cc2ccc3c(c2)OCO3)CC1")
"band 1"
>>> label("Cc1cc(C)c2c(CN3CCN(c4ccccn4)CC3)cc(=O)oc2c1")
"band 1"
>>> label("COc1cc(NS(=O)(=O)c2ccc(-c3c(C)noc3C)cc2)cc(OC)c1")
"band 3"
>>> label("COc1ccccc1-n1ncc2c(C(C)C)nnc(SCC(=O)NCc3ccco3)c21")
"band 2"
>>> label("CN1CCN(C2Cc3ccccc3Sc3ccc(Cl)cc32)CC1 (stereo not drawn)")
"band 3"
>>> label("Cc1ccc(CN2CCC(C(=O)N3CCCCCCNC(=O)CC3)CC2)s1")
"band 1"
>>> label("CCC1CCCCN1C(=O)Cc1c(C)nc2nc(-c3ccc(C(C)(C)C)cc3)nn2c1C (stereo not drawn)")
"band 3"
>>> label("CCc1nc(-c2csc(S(=O)(=O)N3CCCC(C(=O)NC4CCCC4)C3)c2)no1 (stereo not drawn)")
"band 3"
>>> label("O=C(Cc1csc(NS(=O)(=O)c2ccc(Cl)cc2)n1)NCc1cccs1")
"band 2"
>>> label("CN1CCC(NC(=O)C2CCN(C(=O)c3ncn4c3COC(c3ccc(F)cc3)C4)CC2)CC1 (stereo not drawn)")
"band 1"
>>> label("CN1C(=O)c2cc(C(=O)NCc3cccc(F)c3)nn2CC1(C)C(=O)NCc1ccc(F)cc1 (stereo not drawn)")
"band 2"
>>> label("CCN1C(=O)c2cc(S(=O)(=O)Nc3ccc(F)c(Cl)c3)ccc2Oc2cccnc21")
"band 3"
>>> label("O=C(Cc1csc2nc(-c3ccccc3)cn12)N1CCCc2ccccc21")
"band 3"
>>> label("O=C(NCCc1ccccc1)NC1CCN(C(=O)N2C[C@H]3C[C@H](C2)[C@H]2CCCC(=O)N2C3)CC1")
"band 1"
>>> label("CCc1nn2c(CNS(=O)(=O)c3ccc(C)cc3)c(-c3ccccc3)nc2s1")
"band 3"
